Give DC50 for every item shown.
target: BCL-XL (Homo sapiens); construct: endogenous in cells; host or cells: MOLT-4; assay: Bcl-xL ELISA degradation in MOLT-4 cells, 6 h; format: cell-based; details: read-out: Bcl-xL ELISA in MOLT-4 degradation 6 h: Mean external-Abs DC50
Sequence (Q07817 whole entry): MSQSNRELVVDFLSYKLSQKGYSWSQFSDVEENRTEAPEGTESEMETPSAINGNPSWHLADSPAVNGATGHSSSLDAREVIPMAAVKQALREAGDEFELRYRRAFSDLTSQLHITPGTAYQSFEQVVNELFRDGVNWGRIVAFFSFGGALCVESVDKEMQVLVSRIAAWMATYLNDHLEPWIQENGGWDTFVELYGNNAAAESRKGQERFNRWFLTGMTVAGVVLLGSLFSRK

Recorded DC50, per entry:
[
  {
    "compound": "C#Cc1ccc(CNC(=O)[C@@H]2C[C@@H](O)CN2C(=O)[C@@H](NC(=O)CCCS(=O)(=O)NC(=O)c2nc(N3CCc4cccc(C(=O)Nc5nc6cccnc6s5)c4C3)ccc2-c2cnn(CC3CCCCC3)c2C)C(C)(C)C)cc1",
    "DC50": "10 to 100 nM"
  },
  {
    "compound": "COc1nn(C)c2ccc(CNC(=O)[C@@H]3C[C@@H](O)CN3C(=O)[C@@H](NC(=O)CCCCCS(=O)(=O)NC(=O)c3nc(N4CCc5cccc(C(=O)Nc6nc7cccnc7s6)c5C4)ccc3-c3cnn(CC4CCCCC4)c3C)C(C)(C)C)cc12",
    "DC50": "10 to 100 nM"
  }
]

Turning to the following compound.
Can you look up the measured DC50 of Cc1cc(C(C(=O)N2C[C@H](O)C[C@H]2C(=O)NCc2ccc(-c3scnc3C)cc2OCCN2CCN(CC[C@H](CSc3ccccc3)Nc3ccc(S(=O)(=O)NC(=O)c4ccc(N5CCN(CC6=C(c7ccc(Cl)cc7)CCC(C)(C)C6)CC5)cc4)cc3S(=O)(=O)C(F)(F)F)CC2)C(C)C)on1 (stereo partly drawn) for me?
100 to 500 nM

---

target: BCL-XL (Homo sapiens); construct: endogenous in cells; host or cells: MOLT-4; assay: Bcl-xL ELISA degradation in MOLT-4 cells, 6 h; type: cell-based
Give Dmax for every item shown.

[
  {
    "compound": "Cc1cc(N(C)c2ccc(-c3cnn(CC45CC6CC(CC(C6)C4)C5)c3C)c(C(=O)NS(=O)(=O)CCCCCc3cccc4c3n(C)c(=O)n4C3CCC(=O)NC3=O)n2)nnc1Nc1nc2ccccc2s1 (stereo not shown) [I-423]",
    "reported metric": "Dmax",
    "recorded value": "> 75%"
  },
  {
    "compound": "Cc1ncsc1-c1ccc([C@H](C)NC(=O)[C@@H]2C[C@@H](O)CN2C(=O)[C@@H](NC(=O)CCCCCS(=O)(=O)NC(=O)c2nc(N3CCc4cccc(C(=O)Nc5nc6cccnc6s5)c4C3)ccc2-c2cnn(CC3CCCCC3)c2C)C(C)(C)C)cc1 [I-363]",
    "reported metric": "Dmax",
    "recorded value": "> 75%"
  },
  {
    "compound": "Cc1cc([C@@H](C(=O)N2C[C@H](O)C[C@H]2C(=O)NCc2ccc(-c3scnc3C)cc2OCCN(C)C2CCN(C(=O)c3nc(N4CCc5cccc(C(=O)Nc6nc7ccccc7s6)c5C4)ccc3-c3cnn(CC4CCCCC4)c3C)CC2)C(C)C)on1 [I-266]",
    "reported metric": "Dmax",
    "recorded value": "50 to 75%"
  }
]

Turning to the following compound.
Can you look up the measured Dmax of C#Cc1ccc(CNC(=O)[C@@H]2C[C@@H](O)CN2C(=O)[C@@H](NC(=O)CCCCS(=O)(=O)NC(=O)c2nc(N(C)c3cc(C)c(Nc4nc5cccnc5s4)nn3)ccc2-c2cnn(CC34CC5CC(CC(C5)C3)C4)c2C)C(C)(C)C)cc1 [I-453] for me?
> 75%
